Every entry's value here was drawn from the supplement of paper PMC10307832.

- Test system: NCI-H2009
- PROTOCOL_TEXT: relative viability (nuclei count vs DMSO), 5 days (fraction); higher = more cells survive
- COND: first compound 0.05 µM
PARAMETER_MEASURED: relative viability

{"columns": ["COMPOUND", "relative viability"],
 "data": [
  ["Nc1ccn([C@@H]2O[C@H](CO)[C@@H](O)[C@@H]2O)c(=O)n1 [Cytarabine] + Nc1nc2[nH]cc(CCc3ccc(C(=O)N[C@@H](CCC(=O)O)C(=O)O)cc3)c2c(=O)[nH]1 [Pemetrexed] (partner 0.2 µM)", 0.996]
]}

**Query** Identify measured relative viability associated with Nc1ccn([C@@H]2O[C@H](CO)[C@@H](O)[C@@H]2O)c(=O)n1 [Cytarabine] + Cc1cc(Nc2cc(N3CCN(C)CC3)nc(Sc3ccc(NC(=O)C4CC4)cc3)n2)n[nH]1 [Tozasertib] (partner 0.1 µM)
**Result** 0.786

====

- Test system: NCI-H460
- PROTOCOL_TEXT: relative viability (nuclei count vs DMSO), 5 days (fraction); higher = more cells survive
- COND: first compound 0.005 µM
PARAMETER_MEASURED: relative viability
One number for each entry.

Sample records with relative viability:
{"columns": ["COMPOUND", "relative viability"],
 "data": [
  ["COc1cc2nccc(Oc3ccc(NC(=O)Nc4cc(C)on4)c(Cl)c3)c2cc1OC [Tivozanib] + COc1cc2c(Oc3ccc(NC(=O)C4(C(=O)Nc5ccc(F)cc5)CC4)cc3F)ccnc2cc1OCCCN1CCOCC1 [Foretinib] (partner 0.25 µM)", 0.983],
  ["Nc1ccn([C@@H]2O[C@H](CO)[C@@H](O)[C@@H]2O)c(=O)n1 [Cytarabine] + O=C(c1cc(Cc2n[nH]c(=O)c3ccccc23)ccc1F)N1CCN(C(=O)C2CC2)CC1 [Olaparib] (partner 8 µM)", 0.355],
  ["COc1cc2nccc(Oc3ccc(NC(=O)Nc4cc(C)on4)c(Cl)c3)c2cc1OC [Tivozanib] + O=C(c1cc(Cc2n[nH]c(=O)c3ccccc23)ccc1F)N1CCN(C(=O)C2CC2)CC1 [Olaparib] (partner 8 µM)", 0.377]
]}

**Query** Identify measured relative viability associated with COc1cc2nccc(Oc3ccc(NC(=O)Nc4cc(C)on4)c(Cl)c3)c2cc1OC [Tivozanib] + Cc1nc(Nc2ncc(C(=O)Nc3c(C)cccc3Cl)s2)cc(N2CCN(CCO)CC2)n1 [Dasatinib] (partner 0.075 µM)
**Result** 0.401

====

- Test system: NCI-H1793
- PROTOCOL_TEXT: relative viability (nuclei count vs DMSO), 5 days (fraction); higher = more cells survive
- COND: first compound 0.005 µM
Give relative viability for every item shown.
One number for each entry.

{"columns": ["MOLECULE", "relative viability"],
 "data": [
  ["COc1cc2nccc(Oc3ccc(NC(=O)Nc4cc(C)on4)c(Cl)c3)c2cc1OC [Tivozanib] + NC(=O)Nc1cc(-c2cccc(F)c2)sc1C(=O)N[C@H]1CCCNC1 [AZD7762] (partner 0.2 µM)", 0.448],
  ["COc1cc2nccc(Oc3ccc(NC(=O)Nc4cc(C)on4)c(Cl)c3)c2cc1OC [Tivozanib] + Nc1nc2[nH]cc(CCc3ccc(C(=O)N[C@@H](CCC(=O)O)C(=O)O)cc3)c2c(=O)[nH]1 [Pemetrexed] (partner 0.2 µM)", 0.643],
  ["COc1cc2nccc(Oc3ccc(NC(=O)Nc4cc(C)on4)c(Cl)c3)c2cc1OC [Tivozanib] + O=C(c1cc(Cc2n[nH]c(=O)c3ccccc23)ccc1F)N1CCN(C(=O)C2CC2)CC1 [Olaparib] (partner 8 µM)", 0.804],
  ["Nc1ccn([C@@H]2O[C@H](CO)[C@@H](O)[C@@H]2O)c(=O)n1 [Cytarabine] + N=C(N)NC(=N)NCCc1ccccc1 [Phenformin] (partner 250 µM)", 0.359],
  ["Nc1ccn([C@@H]2O[C@H](CO)[C@@H](O)[C@@H]2O)c(=O)n1 [Cytarabine] + CS(=O)(=O)CCNCc1ccc(-c2ccc3ncnc(Nc4ccc(OCc5cccc(F)c5)c(Cl)c4)c3c2)o1 [Lapatinib] (partner 2 µM)", 0.846],
  ["COc1cc2nccc(Oc3ccc(NC(=O)Nc4cc(C)on4)c(Cl)c3)c2cc1OC [Tivozanib] + CCNC(=O)c1noc(-c2cc(C(C)C)c(O)cc2O)c1-c1ccc(CN2CCOCC2)cc1 [Luminespib] (partner 0.01 µM)", 0.154]
]}

For each of the items listed, what is its relative viability?
1. COc1cc2nccc(Oc3ccc(NC(=O)Nc4cc(C)on4)c(Cl)c3)c2cc1OC [Tivozanib] + Cc1nc(NC(=O)N2CCC[C@H]2C(N)=O)sc1-c1ccnc(C(C)(C)C(F)(F)F)c1 [Alpelisib] (partner 2 µM)
2. COc1cc2nccc(Oc3ccc(NC(=O)Nc4cc(C)on4)c(Cl)c3)c2cc1OC [Tivozanib] + CS(=O)(=O)CCNCc1ccc(-c2ccc3ncnc(Nc4ccc(OCc5cccc(F)c5)c(Cl)c4)c3c2)o1 [Lapatinib] (partner 2 µM)
3. Nc1ccn([C@@H]2O[C@H](CO)[C@@H](O)[C@@H]2O)c(=O)n1 [Cytarabine] + COc1cccc2cc(-c3nc([C@H]4CC[C@H](C(=O)O)CC4)n4ncnc(N)c34)[nH]c12 [OSI-027] (partner 0.5 µM)

**Result**
0.643
0.619
0.296
